biological target: SSTR2 (Homo sapiens, UniProt P30874); experiment: SSTR binding affinity by radioligand binding competition assay ([125I]-Tyr11-Somatostatin, membrane extracts); conditions: radioligand competition, [125I]-Tyr11-Somatostatin 0.1 nM, membrane extracts; Ki from IC50 by Cheng Prusoff; read-out: SSTR2 Ki
Sequence (P30874 whole entry): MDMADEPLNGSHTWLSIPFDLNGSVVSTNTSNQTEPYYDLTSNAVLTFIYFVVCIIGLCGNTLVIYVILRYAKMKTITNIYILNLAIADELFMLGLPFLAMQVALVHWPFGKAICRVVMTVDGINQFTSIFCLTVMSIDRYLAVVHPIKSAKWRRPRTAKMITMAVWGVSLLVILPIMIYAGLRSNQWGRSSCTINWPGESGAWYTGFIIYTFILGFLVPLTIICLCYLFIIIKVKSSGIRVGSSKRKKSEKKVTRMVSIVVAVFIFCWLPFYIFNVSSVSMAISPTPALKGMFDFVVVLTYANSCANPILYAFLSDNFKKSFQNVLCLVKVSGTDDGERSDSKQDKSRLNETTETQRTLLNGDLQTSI
Numbered stars: 1 amine (or outer) side, 2 acyl side, 3 side chain; on linkers, the order of the positions; unused ones are H or OH. Square brackets hold non-standard residues; d marks the D form. Peptide text beside a SMILES is read from it. * marks the point of attachment. DOTA(Lu)NH(CH2)6NHCOCH2 = O=C(CN1CCN2CCN3CCN(CC1)CC(=O)[O][Lu]([O]C(=O)C2)[O]C(=O)C3)NCCCCCCNC(=O)C*; DOTA(Lu) = O=C1CN2CCN3CCN(CC(=O)*)CCN(CC2)CC(=O)[O][Lu]([O]1)[O]C(=O)C3; Ala(piperidin-4-yl) = O=C([C@H](CC1CCN([*:3])CC1)N[*:1])[*:2]; dTrp(βS-Me) = C[C@@H](c1c[nH]c2ccccc12)[C@@H](N)C(=O)O; Phe(3-CONH2) = NC(=O)c1cccc(C[C@H](N)C(=O)O)c1; NMeLys(Me) = CNCCCC[C@H](NC)C(=O)O; 4Pal = N[C@@H](Cc1ccncc1)C(=O)O; NMehCys = CN[C@@H](CCS)C(=O)O; NMeC = CN[C@@H](CS)C(=O)O
I'd be grateful if you could share measured Ki for these entries.

Prompt line: Give the reported Ki for this molecule. C[C@@H](O)[C@@H]1NC(=O)[C@H](CCCCN)NC(=O)[C@@H](Cc2c[nH]c3ccccc23)NC(=O)[C@H](Cc2ccncc2)NC(=O)[C@H](CSCC(=O)NCCCCCCNC(=O)CN2CCN3CCN4CCN(CC2)CC(=O)[O][Lu]([O]C(=O)C3)[O]C(=O)C4)N(C)C(=O)[C@H](Cc2ccccc2)NC1=O [RB-0002947] (cyclo([4Pal][dW]KTF[NMeC](DOTA(Lu)NH(CH2)6NHCOCH2)))
Response line: 3.33 to 10 nM

Prompt line: Give the reported Ki for this molecule. C[C@@H](O)[C@@H]1NC(=O)[C@H](CCCCN)NC(=O)[C@@H](Cc2c[nH]c3ccccc23)NC(=O)[C@H](Cc2cccc(C(N)=O)c2)NC(=O)[C@H](CCSCC(=O)NCCCCCCNC(=O)CN2CCN3CCN4CCN(CC2)CC(=O)[O][Lu]([O]C(=O)C3)[O]C(=O)C4)N(C)C(=O)[C@H](Cc2ccccc2)NC1=O [RB-0003302] (cyclo(F[NMehCys](DOTA(Lu)NH(CH2)6NHCOCH2)[Phe(3-CONH2)][dW]KT))
Response line: 3.33 to 10 nM

Prompt line: Give the reported Ki for this molecule. C[C@@H](O)[C@@H]1NC(=O)[C@H](CC2CCNCC2)NC(=O)[C@@H]([C@@H](C)c2c[nH]c3ccccc23)NC(=O)[C@H](Cc2ccc(O)cc2)NC(=O)[C@H](CCCCN(C)C(=O)CN2CCN3CCN4CCN(CC2)CC(=O)[O][Lu]([O]C(=O)C4)[O]C(=O)C3)N(C)C(=O)[C@H](Cc2ccccc2)NC1=O [RB-0006579] (cyclo(F[NMeLys(Me)](DOTA(Lu))Y[dTrp(βS-Me)][Ala(piperidin-4-yl)]T))
Response line: 3.33 to 10 nM
